Parameter Plant response rating, Barley: see the listing below.
System: winter barley (Hordeum vulgare)
Method notes: Test B postemergence plant response
Type: in vivo
Conditions used: 31 g ai/ha, postemergence; scale 0 to 100, 0 is no effect, 100 is complete control

Worked cases, answers included:
{"Structure as smiles": "O=C1CCCC(O)=C1C(=O)c1cnc(C2CC2)n(-c2ccccc2)c1=O", "Test system": "winter barley (Hordeum vulgare)", "Assay value": 0}
{"Structure as smiles": "CCCn1c(-c2cccc(OC)c2)ncc(C(=O)C2=C(O)CCCC2=O)c1=O", "Test system": "winter barley (Hordeum vulgare)", "Assay value": 5}

The recorded Plant response rating, Barley for CCCCn1c(CCC)ncc(C(=O)C2=C(O)CCCC2=O)c1=O is 0

Measured Plant response rating, Barley, O=C1CCCC(O)=C1C(=O)c1cnc(-c2ccccc2)n(C2CC2)c1=O : 0
